# Protocol notes: Cytotoxicity against human HepG2(2.2.15) cells
# Assay type: cell-based
# Measurement setup: read-out: TC50 (the source's name)
Experimental readout: CC50 (µg/mL)

>>> endpoint_value("O=c1[nH]cc(F)c(=O)[nH]1")
6.12
>>> endpoint_value("CCCC(=O)N[C@]1(C)CCC[C@@]2(C)[C@@H]3CC[C@@]4(C)C[C@]3(CC[C@@H]21)CC4=O")
65.7
>>> endpoint_value("C[C@@]12CC[C@@H]3[C@@](CC[C@H]4[C@@]3(C)CCC[C@@]4(C)NC(=O)c3ccc(I)cc3)(CC1=O)C2")
10.5
>>> endpoint_value("C[C@@]12CC[C@@H]3[C@@](CC[C@H]4[C@@]3(C)CCC[C@@]4(C)NC(=O)c3ccc(C#N)cc3)(CC1=O)C2")
10.8
>>> endpoint_value("CCC(=O)N[C@]1(C)CCC[C@@]2(C)[C@@H]3CC[C@@]4(C)C[C@]3(CC[C@@H]21)CC4=O")
87.5
>>> endpoint_value("C[C@@]12CC[C@@H]3[C@@](CC[C@H]4[C@@]3(C)CCC[C@@]4(C)NC(=O)c3ccc(F)cc3)(CC1=O)C2")
19.7
>>> endpoint_value("Cc1ccc(C(=O)N[C@]2(C)CCC[C@@]3(C)[C@@H]4CC[C@@]5(C)C[C@]4(CC[C@@H]32)CC5=O)cc1")
18.9

---

# Protocol notes: Cytotoxicity against human HepG2(2.2.15) cells
# Format: cell-based
# Measurement setup: read-out: TC50 (the source's name)
The entries below come with measured CC50 values attached.
Experimental readout: CC50 (µg/mL)

>>> endpoint_value("C[C@@]12CC[C@@H]3[C@@](CC[C@H]4[C@@]3(C)CCC[C@@]4(C)NC(=O)c3ccccc3)(CC1=O)C2")
48.5
>>> endpoint_value("CCc1ccc(C(=O)N[C@]2(C)CCC[C@@]3(C)[C@@H]4CC[C@@]5(C)C[C@]4(CC[C@@H]32)CC5=O)cc1")
21.2
>>> endpoint_value("COc1ccc(C(=O)N[C@]2(C)CCC[C@@]3(C)[C@@H]4CC[C@@]5(C)C[C@]4(CC[C@@H]32)CC5=O)cc1")
22.4
>>> endpoint_value("Nc1ccn([C@@H]2CS[C@H](CO)O2)c(=O)n1 [LAMIVUDINE]")
205
>>> endpoint_value("C[C@@]12CC[C@@H]3[C@@](CC[C@H]4[C@@]3(C)CCC[C@@]4(C)NC(=O)c3ccc(Br)cc3)(CC1=O)C2")
14.9
>>> endpoint_value("C[C@@]12CC[C@@H]3[C@@](CC[C@H]4[C@@]3(C)CCC[C@@]4(C)NC(=O)c3ccc(Cl)cc3)(CC1=O)C2")
21.6

---

# Protocol notes: Selectivity index, ratio of TC50 for human HepG2(2.2.15) cells to IC50 for HBV infected in human HepG2(2.2.15) cells assessed as inhibition of surface antigen secretion
Rule: Selectivity Index of 4 or more gives Fulfilled; anything lower gives Not fulfilled.

>>> category_label("C[C@@]12CC[C@@H]3[C@@](CC[C@H]4[C@@]3(C)CCC[C@@]4(C)NC(=O)c3ccc(F)cc3)(CC1=O)C2")
"Fulfilled"
>>> category_label("CCC(=O)N[C@]1(C)CCC[C@@]2(C)[C@@H]3CC[C@@]4(C)C[C@]3(CC[C@@H]21)CC4=O")
"Not fulfilled"
>>> category_label("Nc1ccn([C@@H]2CS[C@H](CO)O2)c(=O)n1")
"Fulfilled"
>>> category_label("CCCC(=O)N[C@]1(C)CCC[C@@]2(C)[C@@H]3CC[C@@]4(C)C[C@]3(CC[C@@H]21)CC4=O")
"Fulfilled"
>>> category_label("C[C@@]12CC[C@@H]3[C@@](CC[C@H]4[C@@]3(C)CCC[C@@]4(C)NC(=O)c3ccc(Br)cc3)(CC1=O)C2")
"Not fulfilled"
>>> category_label("C[C@@]12CC[C@@H]3[C@@](CC[C@H]4[C@@]3(C)CCC[C@@]4(C)NC(=O)c3ccc(Cl)cc3)(CC1=O)C2")
"Not fulfilled"
>>> category_label("C[C@@]12CC[C@@H]3[C@@](CC[C@H]4[C@@]3(C)CCC[C@@]4(C)NC(=O)c3ccccc3)(CC1=O)C2")
"Not fulfilled"

Just for reference, ChEMBL document CHEMBL3407350 is where these values come from.
